# TESTED SYSTEM: NS3h 2a (JFH1)
# ASSAY NOTES: NS3 helicase inhibitors across HCV genotypes, late-stage follow-up, selectivity assay for HCV NS3 helicase inhibitor project, biochemical, real-time fluorescence, genotypes 2a and 1b, Set 2 (AID 504419)
# ASSAY CONDITIONS: Recombinant NS3 helicase, real-time fluorescence unwinding
Activity calls are given as the source filed them. How the calls were made is not given here.
REPORTED ENDPOINT: IC50

> print(dat)
                                   compound  reported.endpoint             measured
1  Cc1ccc(C(=O)C2=C(O)C(=O)N(Cc3ccco3)C2c2cc(Cl)cc(Cl)c2)o1 (stereo not drawn)               IC50  > 100 µM (inactive)
2  COc1ccc(S(=O)(=O)Nc2ccc(-c3nc4ccc(-c5nc6ccc(C)c(S(=O)(=O)O)c6s5)cc4s3)cc2)cc1               IC50             inactive
3  Cc1ccc2nc(-c3ccc(NC(=O)c4ccc5ncoc5c4)cc3)sc2c1               IC50             inactive
